Origin of the recorded values: ChEMBL document CHEMBL4257471

- assay target: Lysosomal acid glucosylceramidase (Homo sapiens, UniProt P04062)
- Sequence (P04062 whole entry): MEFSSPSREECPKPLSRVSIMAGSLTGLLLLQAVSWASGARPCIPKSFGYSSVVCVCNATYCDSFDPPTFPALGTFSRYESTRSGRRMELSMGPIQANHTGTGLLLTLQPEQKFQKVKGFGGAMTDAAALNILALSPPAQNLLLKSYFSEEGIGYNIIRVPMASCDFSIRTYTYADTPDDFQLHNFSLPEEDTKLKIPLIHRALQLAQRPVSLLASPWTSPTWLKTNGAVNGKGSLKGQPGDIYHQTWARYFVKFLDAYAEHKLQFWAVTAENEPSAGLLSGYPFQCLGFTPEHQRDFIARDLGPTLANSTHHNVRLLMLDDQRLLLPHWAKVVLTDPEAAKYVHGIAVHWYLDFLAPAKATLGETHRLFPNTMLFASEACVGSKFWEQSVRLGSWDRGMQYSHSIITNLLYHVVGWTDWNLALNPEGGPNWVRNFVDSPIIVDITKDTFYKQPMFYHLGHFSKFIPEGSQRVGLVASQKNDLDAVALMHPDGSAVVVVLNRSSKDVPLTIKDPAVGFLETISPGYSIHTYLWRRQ
- method description: Inhibition of recombinant human GBA pre-incubated for 30 mins followed by 4-methylumbelliferyl-beta-D-glucopyranoside substrate addition and measured after 10 mins using compound incubated at pH 7 buffer for 24 hrs prior to test by fluorescence assay
endpoint label: IC50 (nM)

[a] CCCCCCCCOC1OCC(CNC(=N)N2C[C@@H](O)[C@H](O)[C@@H](O)C2)O1 (some centres not stated)
[b] CCCCOC1OCC(CNC(=N)N2C[C@@H](O)[C@H](O)[C@@H](O)C2)O1 (some centres not stated)
Q) Parameter metric = IC50. Return the lower-valued option from a and b . Answer = label.
A) a
(a: 25 nM, b: 2560 nM)
